We begin with a simple list: items and their reported pEC50.
- System: SARS-CoV-2
- Experiment Description: Antiviral activity against SARS-CoV-2 infected in African green monkey Vero cells assessed as reduction in viral replication
- Format: functional, organism-based
- Test Settings: Severe acute respiratory syndrome coronavirus 2, Vero
# log scale: pEC50 equals minus log10 of the concentration in mol/L

[
  {
    "Compound": "O[C@H]1[C@H]2c3cc4c(cc3CN3CCC(=C[C@@H]1O)[C@H]23)OCO4",
    "Observation Type": "pEC50",
    "Numeric Readout": 6.36
  },
  {
    "Compound": "CC[C@H]1CN2CCc3cc(OC)c(OC)cc3[C@@H]2C[C@@H]1C[C@H]1NCCc2cc(OC)c(OC)cc21",
    "Observation Type": "pEC50",
    "Numeric Readout": 5.11
  }
]

Okay, next one:
[in] Requested field: pEC50. Item: "CC[C@H]1CN2CCc3cc(OC)c(OC)cc3[C@@H]2C[C@@H]1C[C@H]1NCCc2cc(O)c(OC)cc21"
[out] 7.91

These entries and their values trace back to ChEMBL document CHEMBL5537109.
